Target: T1, GST-human NOGO-A56 (human, UniProt Q9NQC3 586-785)
T1 construct: also called hNOGO; recombinant human NOGO; not shown: Glutathione S-transferase (GST) tag encoded by vector pGEX-6P1, N-terminal to the NOGO-A fragment; the tag and linker se
T1 sequence: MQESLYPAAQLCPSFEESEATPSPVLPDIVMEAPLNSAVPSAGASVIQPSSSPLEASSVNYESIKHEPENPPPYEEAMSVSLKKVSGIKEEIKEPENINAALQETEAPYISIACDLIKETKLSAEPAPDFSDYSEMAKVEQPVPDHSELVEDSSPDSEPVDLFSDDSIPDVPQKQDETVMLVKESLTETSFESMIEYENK
Experiment: SPR (Biacore 3000), GST-human NOGO-A56 on CM5 chip, antibody as analyte; single experiment
ENDPOINT_LABEL: kon (M⁻¹ s⁻¹)
Report only the number, with the unit M⁻¹ s⁻¹ understood.

Solved entries:
H700L11 (antibody, human IgG1, kappa, V domains shown, Humanised 2A10; human gamma-1 mutated constant region, human kappa) VH: QVQLVQSGAEVKKPGASVKVSCKASGYTFTSYWMHWVRQAPGQGLEWIGNINPSNGGTNYNEKFKSRATLTVDKSTSTAYMELSSLRSEDTAVYYCELGQGYWGQGTLVTVSS VL: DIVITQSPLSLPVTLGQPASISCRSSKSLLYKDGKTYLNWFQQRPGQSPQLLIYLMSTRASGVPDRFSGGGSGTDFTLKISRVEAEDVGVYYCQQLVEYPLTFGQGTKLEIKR ... 1.19e+06
H10L13 (antibody, V domains shown) VH: QVQLVQSGAEVKKPGASVKLSCKASGYTFTSYWMHWVKQAPGQGLEWIGNINPSNGGTNYNEKFKSRATLTVDKSTSTAYMELSSLRSEDTAVYYCELGQGYWGQGTLVTVSS VL: DIVMTQSPLSLPVTLGQPASISCRSSKSLLYKDGKTYLNWFQQRPGQSPQLLIYLMSTRASGVPDRFSGGGSGTDFTLKISRVEAEDVGVYYCQQLVEYPLTFGQGTKLEIK ... 1.64e+06
H5L6 (antibody, human IgG1, kappa, V domains shown, Humanised 2A10; human gamma-1 mutated constant region, human kappa) VH: QVQLVQSGAEVKKPGASVKVSCKASGYTFTSYWMHWVRQAPGQGLEWMGNINPSNGGTNYNEKFKSRVTMTRDTSTSTAYMELSSLRSEDTAVYYCELGQGYWGQGTLVTVSS VL: DIVMTQSPLSLPVTPGEPASISCRSSKSLLYKDGKTYLNWFLQRPGQSPQLLIYLMSTRASGVPDRFSGSGSGTDFTLKISRVEAEDVGVYYCQQLVEYPLTFGGGTKVEIKR ... 1.5e+06
H6L13 (antibody, human IgG1, kappa, V domains shown, Humanised 2A10; human gamma-1 mutated constant region, human kappa; also called H6L13 FL) VH: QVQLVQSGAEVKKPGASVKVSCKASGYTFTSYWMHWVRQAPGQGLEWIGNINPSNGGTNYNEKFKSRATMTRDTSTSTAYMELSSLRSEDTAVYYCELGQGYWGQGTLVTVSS VL: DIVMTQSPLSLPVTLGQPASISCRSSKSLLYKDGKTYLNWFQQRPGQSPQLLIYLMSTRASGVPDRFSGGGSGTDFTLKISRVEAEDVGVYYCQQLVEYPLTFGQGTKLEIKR ... 2.95e+06

Let's switch to this binder now.
Problem: Can you share its kon? I mean this binder: H6L6 (antibody, human IgG1, kappa, V domains shown, Humanised 2A10; human gamma-1 mutated constant region, human kappa) VH: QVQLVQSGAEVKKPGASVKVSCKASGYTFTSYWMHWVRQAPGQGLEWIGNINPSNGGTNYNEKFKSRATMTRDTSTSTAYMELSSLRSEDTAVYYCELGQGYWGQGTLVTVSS VL: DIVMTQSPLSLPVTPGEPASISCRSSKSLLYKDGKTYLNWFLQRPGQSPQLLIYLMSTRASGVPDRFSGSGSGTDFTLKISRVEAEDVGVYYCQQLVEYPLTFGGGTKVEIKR
Solution: 1.2e+06
